Biological target: human LXRβ (Homo sapiens, UniProt P55055)
Construct: biotin (biotinylated; biotinylation tag not described); made in house; host or cells: E. coli
Sequence (P55055 whole entry): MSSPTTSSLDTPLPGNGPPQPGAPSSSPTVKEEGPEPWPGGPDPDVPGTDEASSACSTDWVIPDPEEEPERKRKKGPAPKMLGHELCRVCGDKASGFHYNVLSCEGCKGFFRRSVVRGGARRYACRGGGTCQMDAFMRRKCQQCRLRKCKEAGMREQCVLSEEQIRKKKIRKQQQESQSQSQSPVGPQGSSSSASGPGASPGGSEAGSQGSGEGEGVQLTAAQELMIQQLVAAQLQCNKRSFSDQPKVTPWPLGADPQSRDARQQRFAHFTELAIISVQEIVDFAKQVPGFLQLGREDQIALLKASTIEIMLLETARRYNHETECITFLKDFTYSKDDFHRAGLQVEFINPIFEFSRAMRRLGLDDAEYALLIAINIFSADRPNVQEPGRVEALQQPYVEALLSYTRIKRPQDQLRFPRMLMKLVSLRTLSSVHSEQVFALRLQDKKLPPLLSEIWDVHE
Assay: Ligand-binding test procedure for human LXRβ (3H T0901317 competition, flash plates)
Conditions: IC50 (μM) LXRα binding/IC50 (μM) LXRβ binding
REPORTED PROPERTY: Binding ratio a/b

# MOLECULE, Binding ratio a/b
rows = [
    ("Cc1cc(C(=O)O)ccc1C#Cc1cccc(-c2c(Cc3ccccc3)cnc3c(C(F)(F)F)cccc23)c1 [Example 128]", 7),
    ("O=C(O)c1cc(F)ccc1OCc1cccc(-c2c(Cc3ccccc3)cnc3c(C(F)(F)F)cccc23)c1 [Example 104]", 1),
    ("Cc1cc(C(=O)O)ccc1NCc1cccc(-c2c(Cc3ccccc3)cnc3c(C(F)(F)F)cccc23)c1 [Example 53]", 5),
]

1: Cc1cc(NCc2cc(-c3c(Cc4ccccc4)cnc4c(C(F)(F)F)cccc34)cs2)c(C)cc1CC(=O)O [Example 70]
2: Cc1ccc(C(=O)O)cc1C#Cc1cccc(-c2c(Cc3ccccc3)cnc3c(C(F)(F)F)cccc23)c1 [Example 129]
Task item: Pick the one with the larger Binding ratio a/b: 1 vs 2 Answer by quoting the chosen item's label.
Reply: 1

a: Cc1cc(NCc2cccc(-c3c(C)cnc4c(C(F)(F)F)cccc34)c2)c(C)cc1CC(=O)O [Example 7]
b: CC(C)C[C@H](NC(=O)c1ccc(COc2cccc(-c3c(Cc4ccccc4)cnc4c(C(F)(F)F)cccc34)c2)cc1)C(=O)O [Example 81]
Task item: Pick the one with the larger Binding ratio a/b: a vs b Answer by quoting the chosen item's label.
Reply: a
(a: 24, b: 3)

A: O=C(O)Cc1cccc2c(NCc3cncc(-c4c(Cc5ccccc5)cnc5c(C(F)(F)F)cccc45)c3)cccc12 [Example 3]
B: O=C(O)c1cccc(COc2cccc(-c3c(Cc4ccccc4)cnc4c(C(F)(F)F)cccc34)c2)c1 [Example 90]
Task item: Lab log: flag the item ( A or B ) with the smaller Binding ratio a/b figure. Answer by quoting the chosen item's label.
Reply: B
(B: 2, A: 32)
